# ASSAY_DETAILS: NCI Yeast Anticancer Drug Screen. Data for the rad18 strain (AID 177)
# CONDITIONS: S. cerevisiae rad18 mutant growth inhibition; at 33.0 µM; stronger effect = higher value
Compounds without any hit were thinned out: in the full panel of roughly 79,000, 15% have a hit.
OUTCOME_MEASURE: growth inhibition (%)
Supply the numeric figure in %, leaving out any unit text.

input: What measured growth inhibition goes with COc1cc(C(C)C(C(=O)O)C(=O)C(=O)O)cc(OC)c1OC (centres undefined) ?
output: 1

input: Look at this compound and give its reported growth inhibition. `O=C(O)/C=C\C(=O)NNc1ccc(Br)cc1`
output: 98

input: Fill in: growth inhibition of `CC1=Cc2ccc(C)cc2C(=O)C1=O` is ___
output: 99

input: growth inhibition for `CC(=O)c1ccc(NCN2C(=O)c3ccccc3C2=O)cc1` ?
output: 90

---

# ASSAY_DETAILS: NCI Yeast Anticancer Drug Screen. Data for the mlh1 rad18 strain (AID 175)
# CONDITIONS: S. cerevisiae mlh1 rad18 strain growth inhibition; at 5.0 µM (retest, dose inferred, filed as 0.5)
This is part of a sample that, as a whole, favours compounds with a hit. Of some 79,000 tested, about 15% had one in any assay. The source made the active and inactive calls. Cut-off read from the data, not from the text of the source: active = growth inhibition above about 70%; inactive = the rest.
Please answer using one outcome listed in y (active), n (inactive)

These recorded examples may help you get a feel for the data.
> print(dat)
                                   molecule  assigned.label
1  c1ccc(N/N=C2\CC(c3ccccc3)Oc3ccccc32)cc1 (stereo not given)               n
2  CCN(CC)c1ccc(N=Nc2cc(S(=O)(=O)O)ccc2O)c(O)c1               n

input: Assay outcome for `CCCCCC/C(C)=N/Nc1ccc([N+](=O)[O-])cc1[N+](=O)[O-]` : what was it?
output: n

input: Just curious, what result did O=C(Nc1ccn(C2CC(O)C(COC(c3ccccc3)(c3ccccc3)c3ccccc3)O2)c(=O)n1)c1ccccc1 (stereo not given) get here?
output: y

input: For this molecule, state the assay outcome: `COc1ccc2nc3cccc([N+](=O)[O-])c3c(NCCCO)c2c1`
output: y

---

Reported growth inhibition by item:
# ASSAY_DETAILS: NCI Yeast Anticancer Drug Screen. Data for the bub3 strain (AID 167)
# CONDITIONS: S. cerevisiae bub3 mutant strain, at 1.2 µM, stronger effect = higher value
This is part of a sample that, as a whole, favours compounds with a hit. Of some 79,000 tested, about 15% had one in any assay.
Give a bare numeral; the unit % is implied.

Look over these answered cases.
> print(dat)
                                   molecule  observed
1     [Cl][Pt+2][Cl].[NH-]CC1(C[NH-])CCCCC1       -42
2  CCCCCCC(CCl)c1sc(-c2csc(CCNC(=O)OC(C)(C)C)n2)nc1C(=O)OC (stereo unspecified)        -1
3  CN(C)c1ccc(C(c2ccc(Cl)cc2)c2ccc(N(C)C)cc2)cc1        80

input: Entry `Nc1ccc2cc(Br)c3ccccc3c2c1` has what growth inhibition?
output: 0

input: Item under review: CC1C=CN(N(C)C)C2=C1C(=O)c1cnccc1C2=O (stereo unspecified) . Reported growth inhibition?
output: -38

input: Given the molecule `NNc1nnc(-c2ccccc2)nc1Cc1ccccc1` , what is its reported growth inhibition?
output: 16

---

# ASSAY_DETAILS: NCI Yeast Anticancer Drug Screen. Data for the mec2-1 strain (AID 157)
# CONDITIONS: S. cerevisiae mec2-1 strain, at 3.7 µM, stronger effect = higher value
The panel holds about 79,000 compounds, 15% with a hit somewhere; the sample as a whole holds those more often.
OUTCOME_MEASURE: growth inhibition (%)
Value expressed in %; do not type the unit.

input: For the compound `O=C1C(Br)=CC(Br)(Br)C=C1Br` , what growth inhibition is on record?
output: 28

input: Query: growth inhibition; subject: CC1=NN(C(=O)CC(=O)N(C(=O)c2ccccc2)c2ccc(Cl)cc2)C(=O)C1N=Nc1ccc([N+](=O)[O-])cc1 (stereo unspecified)
output: 8

input: # input compound: `Cc1cc(N(CCOS(C)(=O)=O)CCOS(C)(=O)=O)ccc1C=O` ; wanted: its growth inhibition
output: 23

input: Return reported growth inhibition; argument: CC(O)CN1C(=O)c2cccc3cc([N+](=O)[O-])cc(c23)C1=O (stereo unspecified)
output: -11

input: Sample `O=[N+]([O-])c1cccc2nc3ccccc3c(NCCC[N+]3([O-])CCOCC3)c12` — what was its growth inhibition?
output: 41

input: Field request: growth inhibition | item: `Cc1cccc[c]1[Sn]([Cl])([S]/C(C#N)=N/N=C/c1ccc(N(C)C)cc1)[c]1ccccc1C`
output: -1

input: Given the entry `CC(=O)CC[N+](C)(C)C` , report its measured growth inhibition.
output: -3

input: GET /values?readout=growth inhibition&item= `O=C(CCCN1CCC2(CC1)OC(=O)N(c1ccccc1)C2=O)c1ccccc1`
output: 45

input: I'd like to know its growth inhibition. The compound in question is `C[n+]1c(-c2ccc(NC(=O)c3ccc(C(=O)Nc4ccc(-c5cn6ccccc6[n+]5C)cc4)cc3)cc2)cn2ccccc21`
output: 9

input: Consider the compound shown here: c1ccc(N/N=C2\CC(c3ccccc3)Oc3ccccc32)cc1 (stereo unspecified) What is its recorded growth inhibition?
output: 4

input: Which growth inhibition reading was recorded for the compound OC1C#CCSCC#C/C=C\1 (stereo unspecified) ?
output: 18

---

# ASSAY_DETAILS: NCI Yeast Anticancer Drug Screen. Data for the mlh1 strain (AID 171);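 also: 0% = growth of vehicle-treated control cultures of the same strain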
# CONDITIONS: S. cerevisiae mlh1 strain growth inhibition; at 100.0 µM
About 79,000 compounds went through this panel and 15% of them were active in at least one assay; those are over-represented in the sample as a whole. The source made the active and inactive calls. No stated cut-off is given here; in the data, active means growth inhibition above about 70%; inactive means the rest.
Please state which outcome applies, choosing from 1 = active, 0 = inactive

Take a look at these entries with their results.
> print(dat)
                                   compound  assigned.label
1                       CC(=O)CC[N+](C)(C)C               0
2  O=C(N/N=C/c1ccc2c(c1)CCC2)c1ccccc1[N+](=O)[O-]               1
3      Cc1ccc2nc(N/N=C/c3ccc(C)s3)cc(C)c2c1               1
4  CC[N+]1(C)CCC(O)(/C=C/c2ccc(Cl)c(Cl)c2)C(C(=O)/C=C/c2ccc(Cl)c(Cl)c2)C1 (centres undefined)               1
5  O=C1C(C(O)(C(F)(F)F)C(F)(F)F)CCC1C(O)(C(F)(F)F)C(F)(F)F (centres undefined)               0
6       Nc1c([N+](=O)[O-])cc2c3c(cccc13)CC2               0

input: Hi, do you know how `COc1ccc(/C=C2\S/C(=N/Nc3nc(-c4ccccc4)cs3)NC2=O)cc1OC` came out in this test?
output: 1

input: Which result was noted for this compound in the test: `N#C/C(=C1C=C/C(=N\O)C(Cl)=C\1)c1ccccc1`
output: 0

input: Short answer needed: outcome of this test for `COc1ccc2c(C)cc(N/N=C/c3sccc3C)nc2c1` ?
output: 0

input: For this compound, state the assay outcome: `COc1ccc2c(Cc3c4ccccc4cc4ccccc34)cncc2c1O`
output: 1

input: Look up the recorded call for `O=C1c2ccccc2C(=O)C1C(c1ccc(F)cc1)C1C(=O)c2ccccc2C1=O` in this test.
output: 1

---

# ASSAY_DETAILS: NCI Yeast Anticancer Drug Screen. Data for the mgt1 strain (AID 153)
# CONDITIONS: S. cerevisiae mgt1 mutant growth inhibition; at 3.7 µM; stronger effect = higher value
The panel holds about 79,000 compounds, 15% with a hit somewhere; the sample as a whole holds those more often. The source made the active and inactive calls. Cut-off read from the data, not from the text of the source: active = growth inhibition above about 70%; inactive = the rest.
OUTCOME_MEASURE: growth inhibition

> print(dat)
                                   molecule        observed
1       O=C(CCC(=O)c1ccc(O)cc1)Oc1ccc(O)cc1  -1% (inactive)
2  Cc1ccnc(NS(=O)(=O)c2ccc(Nc3c4ccccc4nc4ccccc34)cc2)n1  33% (inactive)
3  CN(C)CCNC(=O)c1cccc2nc3c4ccccc4c4ccccc4c3nc12   1% (inactive)
4  c1ccc(N/N=C2\CC(c3ccccc3)Oc3ccccc32)cc1 (stereo not drawn)  -1% (inactive)
5      COC1=C(N=[N+]=[N-])C(=O)c2ncccc2C1=O   7% (inactive)
6  CCOC(=O)c1[nH]c2cccc3c2c1CC(Br)C3=O (stereo not drawn)   0% (inactive)

input: Requested read-out: growth inhibition. Entry: `Cc1cc(N(CCOS(C)(=O)=O)CCOS(C)(=O)=O)ccc1C=O`
output: 26% (inactive)

input: Suppose we examine the molecule O=C(Nc1ccn(C2CC(O)C(COC(c3ccccc3)(c3ccccc3)c3ccccc3)O2)c(=O)n1)c1ccccc1 (stereo not drawn) ; what growth inhibition value has been reported?
output: 14% (inactive)

input: GET /values?readout=growth inhibition&item= `Cc1ccc(N(C=O)c2c([N+](=O)[O-])cc([N+](=O)[O-])c3c2=[N+]([O-])CN=3)cc1`
output: -1% (inactive)

input: If you can, please state the reported growth inhibition value of `CCOc1nc(OCC)nc(-c2cccn2-c2ccccc2)n1` .
output: 8% (inactive)

input: Looking for the measured growth inhibition of `CCc1nc2ccc(N=Nc3c(O)ccc4ccccc34)cc2[nH]1` , can you help?
output: -10% (inactive)
